Data credit: patent US11365199B2

target: FSHR (Homo sapiens, UniProt P23945); construct: expressed in transfected cells; host or cells: CHO (Cho-FSHR-LUC-1-1-43); experiment: EC50 of cyclic AMP production in CHO FSHR cells + EC20 FSH (Assay A); format: cell-based; conditions: CHO FSHR cells + EC20 FSH, cAMP HTRF; read-out: Assay A: EC50 of cyclic AMP production
Sequence (P23945 18-695): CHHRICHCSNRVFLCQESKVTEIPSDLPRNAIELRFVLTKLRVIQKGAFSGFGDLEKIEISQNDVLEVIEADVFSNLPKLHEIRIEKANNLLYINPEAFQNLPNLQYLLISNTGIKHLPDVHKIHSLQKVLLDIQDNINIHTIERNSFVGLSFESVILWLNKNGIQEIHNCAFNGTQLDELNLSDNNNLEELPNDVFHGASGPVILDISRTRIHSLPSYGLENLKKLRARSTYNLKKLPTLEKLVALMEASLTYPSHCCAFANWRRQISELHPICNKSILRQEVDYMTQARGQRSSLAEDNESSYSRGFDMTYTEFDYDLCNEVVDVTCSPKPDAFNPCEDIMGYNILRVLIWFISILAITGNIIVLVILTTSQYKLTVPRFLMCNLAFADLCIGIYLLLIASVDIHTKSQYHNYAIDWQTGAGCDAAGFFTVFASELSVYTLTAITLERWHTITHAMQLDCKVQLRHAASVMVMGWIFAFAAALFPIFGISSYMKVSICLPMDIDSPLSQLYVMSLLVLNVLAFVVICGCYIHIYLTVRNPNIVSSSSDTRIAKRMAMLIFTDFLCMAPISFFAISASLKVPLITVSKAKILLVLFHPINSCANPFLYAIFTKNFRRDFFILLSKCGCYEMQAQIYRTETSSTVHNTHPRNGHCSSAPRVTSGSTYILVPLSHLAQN
pEC50: −log10 of the molar value.
readout: pEC50

Write down the reported pEC50 of COc1cc2c(cc1C1CCOC1)-c1c(c(C(=O)N(C)C(C)(C)C)nn1-c1ccsc1)CO2 (stereo not shown) , test system: FSHR (Homo sapiens, UniProt P23945).
> 7.00

Query pEC50 on FSHR (Homo sapiens, UniProt P23945) for COc1cc2c(cc1-c1ccn(C)c1)-c1c(c(C(=O)NCC3(O)COC3)nn1-c1ccsc1)CO2
5.30 to 6.00

For FSHR (Homo sapiens, UniProt P23945), provide pEC50 of COc1cc2c(cc1OC(C)C)-c1c(c(C(=O)N(C)CCN(C)C(=O)C3CCC3)nn1-c1ccsc1)CO2 please.
> 7.00

Hi! What's the reported pEC50 for COc1cc2c(cc1C=C(C)C)-c1c(c(C(=O)NC(C)(C)CO)nn1-c1ccsc1)CO2 on FSHR (Homo sapiens, UniProt P23945)?
6.00 to 7.00

Enter reported pEC50 observed with FSHR (Homo sapiens, UniProt P23945) for COCCCn1cc(-c2cc3c(cc2OC)OCc2c(C(=O)N4CCOCC4(C)C)nn(-c4ccsc4)c2-3)cn1
> 7.00

State its pEC50 on FSHR (Homo sapiens, UniProt P23945): [2H]C([2H])([2H])N(CCNC(=O)c1nn(-c2ccsc2)c2c1COc1cc(OC)c(C=C(C)C)cc1-2)C(C)=O
6.00 to 7.00

GET /values?readout=pEC50&system=FSHR (Homo sapiens, UniProt P23945)&item= [2H]C([2H])([2H])O[C@@H]1CC[C@H](N(C(=O)c2nn(-c3ccsc3)c3c2COc2cc(OC)c(-c4ccn(C)n4)cc2-3)C([2H])([2H])[2H])C1
5.30 to 6.00

----------
biological target: follicle-stimulating hormone (FSH) receptor (Rattus norvegicus); construct: endogenous in cells; host or cells: primary rat granulosa cells; assay: Rat granulosa EC50 FSH (Assay B); assay type: cell-based; conditions: rat granulosa cells; read-out: Assay B: Rat granulosa EC50 FSH
Sequence (P20395 18-692): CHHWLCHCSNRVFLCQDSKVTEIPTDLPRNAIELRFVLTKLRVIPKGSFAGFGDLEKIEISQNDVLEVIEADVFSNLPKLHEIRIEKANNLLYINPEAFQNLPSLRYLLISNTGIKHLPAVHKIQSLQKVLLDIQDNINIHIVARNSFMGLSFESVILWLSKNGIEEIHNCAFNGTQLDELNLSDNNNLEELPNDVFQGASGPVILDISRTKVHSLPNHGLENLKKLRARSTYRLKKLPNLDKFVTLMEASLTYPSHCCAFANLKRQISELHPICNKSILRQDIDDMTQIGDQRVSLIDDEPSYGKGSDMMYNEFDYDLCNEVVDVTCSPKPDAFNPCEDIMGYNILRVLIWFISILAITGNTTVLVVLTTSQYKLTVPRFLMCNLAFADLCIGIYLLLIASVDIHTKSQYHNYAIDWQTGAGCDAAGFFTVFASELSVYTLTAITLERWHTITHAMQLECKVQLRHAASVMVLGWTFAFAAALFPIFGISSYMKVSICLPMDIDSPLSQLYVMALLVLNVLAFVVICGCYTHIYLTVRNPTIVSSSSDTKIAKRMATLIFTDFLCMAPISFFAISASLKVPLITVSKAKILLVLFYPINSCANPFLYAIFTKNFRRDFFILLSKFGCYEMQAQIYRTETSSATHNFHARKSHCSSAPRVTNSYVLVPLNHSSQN
Answer each item with its documented EC50.

Fill in the blank: the reported EC50 of [2H]C([2H])([2H])N(C(=O)c1nn(-c2ccsc2)c2c1COc1cc(OC)c(CC(C)C)cc1-2)C1(C)COC1 is ____.
0.1 to 1 µM

Form field: reported EC50 of COc1cc2c(cc1C=C(C)C)-c1c(c(C(=O)NCCN3CCOC3=O)nn1-c1ccsc1)CO2
1 to 5 µM

# input compound: COc1cc2c(cc1C1=CCOCC1)-c1c(c(C(=O)N3CCOCC3(C)C)nn1-c1ccsc1)CO2 ; wanted: its EC50
< 0.1 µM

Fill blank: measured EC50 of the compound COc1cc2c(cc1-c1ccn(C)n1)-c1c(c(C(=O)N(C)C(C)(C)C)nn1-c1ccsc1)CO2 is ____.
0.1 to 1 µM

Returns the measured EC50 for the input compound. Input: COc1cc2c(cc1-c1nc[nH]n1)-c1c(c(C(=O)N3CCOCC3(C)C)nn1-c1ccsc1)CO2
< 0.1 µM

Sample [2H]C([2H])([2H])OC1(CN(C(=O)c2nn(-c3ccsc3)c3c2COc2cc(OC)c(-c4ccn(C)c4)cc2-3)C([2H])([2H])[2H])COC1 — what was its EC50?
0.1 to 1 µM

What value of EC50 has been recorded for this entry: [2H]C([2H])([2H])N(CCN(C(=O)c1nn(-c2ccsc2)c2c1COc1cc(OC)c(CC(C)C)cc1-2)C([2H])([2H])[2H])C(C)=O
1 to 5 µM

Requested read-out: EC50. Entry: COc1cc2c(cc1-c1cn(C)nc1C)-c1c(c(C(=O)N(C)C(C)(C)C)nn1-c1ccsc1)CO2
0.1 to 1 µM

Which EC50 reading was recorded for the compound COc1cc2c(cc1CC(C)C)-c1c(c(C(=O)N(C)C(C)(C)C)nn1-c1ccsc1)CO2 ?
1 to 5 µM

What measured EC50 goes with COc1cc2c(cc1-c1cnn(C3CC3)c1)-c1c(c(C(=O)N3CCOCC3(C)C)nn1-c1ccsc1)CO2 ?
0.1 to 1 µM

Can you share its EC50? I mean this compound: COc1cc2c(cc1-c1cnn(CC3OCCO3)c1)-c1c(c(C(=O)N3CCOCC3(C)C)nn1-c1ccsc1)CO2
< 0.1 µM

Endpoint output: EC50 of COc1cc2c(cc1-c1c(C)nn(C)c1C)-c1c(c(C(=O)N3CCOCC3(C)C)nn1-c1ccsc1)CO2 . Value?
> 5 µM

Entry COc1cc2c(cc1-c1ccns1)-c1c(c(C(=O)N(C)C(C)(C)C)nn1-c1ccsc1)CO2 has what EC50?
< 0.1 µM

For the compound shown here, COc1cc2c(cc1-c1ccn(C)n1)-c1c(c(C(=O)N3CCOCC3C)nn1-c1ccsc1)CO2 (stereo not shown) , give the reported EC50.
0.1 to 1 µM

Any idea what EC50 was measured for COc1cc2c(cc1-c1ccn(C)n1)-c1c(c(C(=O)N3CCOCC3(C)C)nn1-c1ccsc1)CO2 ?
0.1 to 1 µM

Quick check: EC50 of COc1cc2c(cc1-c1ccnn1C)-c1c(c(C(=O)N3CCOCC3(C)C)nn1-c1ccsc1)CO2 ?
1 to 5 µM
